Target: T1, β-catenin (UniProt P35222 134-665, limits assumed, biotinylated in the SPR and plate assays)
T1 construct: also called beta catenin; biotinylated β-catenin
T1 sequence (looked up): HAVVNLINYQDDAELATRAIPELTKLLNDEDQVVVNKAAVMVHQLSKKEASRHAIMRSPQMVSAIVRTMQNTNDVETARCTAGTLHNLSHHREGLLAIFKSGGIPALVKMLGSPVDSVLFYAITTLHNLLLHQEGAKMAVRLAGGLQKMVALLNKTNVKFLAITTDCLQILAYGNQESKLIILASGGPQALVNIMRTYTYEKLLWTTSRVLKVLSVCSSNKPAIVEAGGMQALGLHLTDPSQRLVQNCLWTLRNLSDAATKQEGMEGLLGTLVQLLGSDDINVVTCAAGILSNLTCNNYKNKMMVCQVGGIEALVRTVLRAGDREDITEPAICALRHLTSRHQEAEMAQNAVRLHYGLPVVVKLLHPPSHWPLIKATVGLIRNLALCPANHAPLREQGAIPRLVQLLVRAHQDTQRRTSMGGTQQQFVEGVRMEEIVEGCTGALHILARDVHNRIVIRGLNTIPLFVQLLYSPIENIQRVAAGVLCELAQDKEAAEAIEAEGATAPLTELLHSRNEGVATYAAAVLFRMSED
Assay: competitive FP
Bridges are numbered along the chain shown (N, C = ends). Where no end group is shown, it is not given here. [ ]: non-standard residue; d: D form. Chg = N[C@H](C(=O)O)C1CCCCC1; NMeA = CN[C@@H](C)C(=O)O
Quantity Measured: Kd

// below: answered binders
Binder	Result
W[NMeA]QEILDKH[Chg]QRVWG-NH2 (lactam 4-8; not fully specified (N-terminus); printed as H17C8C(O)NH-W-NMeA-QE*ILDK*H-Chg-QRVWG-NH2) [SEQ ID NO: 427]	≤ 400 nM
KMIRMWFLISFWG (cyclo-H2N-K(Aoc*)MIRM-NmeW-FLISFWG*) [SEQ ID NO: 21]	> 30000 nM
MWILISFW (HELM PEPTIDE1{[ac].M.W.I.L.I.S.F.W.[O=C(O)CCCN[*:1]]}$$$$V2.0; SMILES CC[C@H](C)[C@H](NC(=O)[C@H](CC(C)C)NC(=O)[C@@H](NC(=O)[C@H](Cc1c[nH]c2ccccc12)NC(=O)[C@H](CCSC)NC(C)=O)[C@@H](C)CC)C(=O)N[C@@H](CO)C(=O)N[C@@H](Cc1ccccc1)C(=O)N[C@@H](Cc1c[nH]c2ccccc12)C(=O)NCCCC(=O)O) [SEQ ID NO: 240]	≤ 400 nM

Pending binder:
Exercise: Look up and state reported Kd for KWFLICFWE (HELM PEPTIDE1{[ac].K.W.F.L.I.C.F.W.E}$PEPTIDE1,PEPTIDE1,2:R3-10:R3$$$V2.0; SMILES CC[C@H](C)[C@@H]1NC(=O)[C@H](CC(C)C)NC(=O)[C@H](Cc2ccccc2)NC(=O)[C@H](Cc2c[nH]c3ccccc23)NC(=O)[C@@H](NC(C)=O)CCCCNC(=O)CC[C@@H](C(=O)O)NC(=O)[C@H](Cc2c[nH]c3ccccc23)NC(=O)[C@H](Cc2ccccc2)NC(=O)[C@H](CS)NC1=O) [SEQ ID NO: 185]
Solution: ≤ 400 nM
